Tested on: Echinochloa oryzicola
Assay: Herbicidal activity against Echinochloa oryzicola assessed as killing at 50 g/ha pre-emergence application under paddy conditions
Assay type: functional
Here, each record is paired with measured Activity data.
value-kind: Activity (%)

# compound, readout-units, recorded-number
measured = [
    ("CCN(CC)C(=O)n1cnc(S(=O)(=O)C(CC2CC2)C(=O)OC)n1 (centres undefined)", "%", 100),
    ("CCOC(=O)C(CC(C)C)S(=O)(=O)c1ncn(C(=O)N(CC)CC)n1 (centres undefined)", "%", 100),
    ("CC(C)CC(C(=O)OC(C)C)S(=O)(=O)c1ncn(C(=O)N(C(C)C)C(C)C)n1 (centres undefined)", "%", 60),
    ("CCN(CC)C(=O)n1cnc(S(=O)(=O)CC(=O)OC)n1", "%", 10),
]

###

Experiment: Octanol-water partition coefficient, log K of the compound
Type: physicochemical
Details: read-out: log K
Label 1 when logP >= 0.7; otherwise 0.

# molecule, group
rows = [
    ("CCN(CC)C(=O)n1cnc(S(=O)(=O)C(C(=O)OC)C(C)C)n1 (stereo unspecified)", 0),
    ("CCC(C)C(C(=O)OC)S(=O)(=O)c1ncn(C(=O)N(CC)CC)n1 (stereo unspecified)", 0),
    ("CCN(CC)C(=O)n1cnc(S(=O)(=O)C(CC(C)C)C(=O)OC(C)(C)C)n1 (stereo unspecified)", 1),
    ("CCN(CC)C(=O)n1cnc(S(=O)(=O)C(C(=O)OC)C2CC2)n1 (stereo unspecified)", 0),
    ("CCCOC(=O)C(CC(C)C)S(=O)(=O)c1ncn(C(=O)N(CC)CC)n1 (stereo unspecified)", 1),
    ("CCCCOC(=O)C(CC(C)C)S(=O)(=O)c1ncn(C(=O)N(CC)CC)n1 (stereo unspecified)", 1),
]

###

Tested on: Schoenoplectiella juncoides
Test: Herbicidal activity against Schoenoplectiella juncoides assessed as killing at 50 g/ha pre-emergence application under paddy conditions
Assay type: functional
Here, each record is paired with measured Activity data.
value-kind: Activity (%)

# compound, measured-target, value-kind, recorded-number
measured = [
    ("CCCCOC(=O)C(CC(C)C)S(=O)(=O)c1ncn(C(=O)N(CC)CC)n1 (stereo not drawn)", "Schoenoplectiella juncoides", "Activity", 100),
    ("CCN(CC)C(=O)n1cnc(S(=O)(=O)C(C)C(=O)OC)n1 (stereo not drawn)", "Schoenoplectiella juncoides", "Activity", 10),
    ("CCCCC(C(=O)OC)S(=O)(=O)c1ncn(C(=O)N(CC)CC)n1 (stereo not drawn)", "Schoenoplectiella juncoides", "Activity", 10),
    ("CCN(CC)C(=O)n1cnc(S(=O)(=O)C(Cc2ccccc2)C(=O)OC)n1 (stereo not drawn)", "Schoenoplectiella juncoides", "Activity", 10),
    ("CCC(CC)C(C(=O)OC)S(=O)(=O)c1ncn(C(=O)N(CC)CC)n1 (stereo not drawn)", "Schoenoplectiella juncoides", "Activity", 80),
    ("CCC(C)C(C(=O)OC)S(=O)(=O)c1ncn(C(=O)N(CC)CC)n1 (stereo not drawn)", "Schoenoplectiella juncoides", "Activity", 90),
    ("CC(C)CC(C(=O)OC(C)C)S(=O)(=O)c1ncn(C(=O)N2CCOCC2)n1 (stereo not drawn)", "Schoenoplectiella juncoides", "Activity", 10),
    ("CCN(CC)C(=O)n1cnc(S(=O)(=O)c2c(C)cc(C)cc2C)n1", "Schoenoplectiella juncoides", "Activity", 100),
    ("CCN(CC)C(=O)C(CC(C)C)S(=O)(=O)c1ncn(C(=O)N(CC)CC)n1 (stereo not drawn)", "Schoenoplectiella juncoides", "Activity", 10),
    ("CCN(CC)C(=O)n1cnc(S(=O)(=O)C(C(=O)OC)C(C)C)n1 (stereo not drawn)", "Schoenoplectiella juncoides", "Activity", 100),
    ("CCN(CC)C(=O)n1cnc(S(=O)(=O)C(CC(C)C)C(=O)OC(C)(C)C)n1 (stereo not drawn)", "Schoenoplectiella juncoides", "Activity", 10),
    ("CCC(C(=O)OC)S(=O)(=O)c1ncn(C(=O)N(CC)CC)n1 (stereo not drawn)", "Schoenoplectiella juncoides", "Activity", 10),
    ("CC(C)CC(C(=O)OC(C)C)S(=O)(=O)c1ncn(C(=O)N(C)C)n1 (stereo not drawn)", "Schoenoplectiella juncoides", "Activity", 10),
    ("CCN(CC)C(=O)n1cnc(S(=O)(=O)C(C(=O)OC)C2CCCC2)n1 (stereo not drawn)", "Schoenoplectiella juncoides", "Activity", 100),
    ("CC(C)CC(C(=O)OC(C)C)S(=O)(=O)c1ncn(C(=O)N(C)c2ccccc2)n1 (stereo not drawn)", "Schoenoplectiella juncoides", "Activity", 10),
    ("CCN(CC)C(=O)n1cnc(S(=O)(=O)C(CC(C)C)C(=O)OC(C)C)n1 (stereo not drawn)", "Schoenoplectiella juncoides", "Activity", 100),
    ("CC(C)CC(C(=O)OC(C)C)S(=O)(=O)c1ncn(C(=O)N2CCCC2)n1 (stereo not drawn)", "Schoenoplectiella juncoides", "Activity", 10),
    ("CCOC(=O)C(CC(C)C)S(=O)(=O)c1ncn(C(=O)N(CC)CC)n1 (stereo not drawn)", "Schoenoplectiella juncoides", "Activity", 90),
]

This collection of values is drawn from ChEMBL document CHEMBL3044861.
